# tested system: rat orexin 1 receptor (Rattus norvegicus, UniProt P56718)
# assay info: Rat orexin 1 receptor radioligand binding
# condition notes: rat orexin 1 receptor; averages of 2-20 runs; read-out: rOX1 Ki
So I've got a bunch of molecules here, and I need their pKi values.
Please note pKi is a logarithmic value: minus log10 of concentration in mol/L. Answer with that number alone.

Name the recorded pKi of the molecule listed here: O=C(c1cccnc1-n1nccn1)N1C[C@H]2C[C@@H](Oc3ccc(C(F)(F)F)cn3)[C@@H]1C2 [Example 87]
6.81

Using known records, supply pKi for O=C(c1cccnc1-n1nccn1)N1C[C@H]2C[C@@H](Nc3ncc(C(F)(F)F)cn3)[C@@H]1C2 [Example 222]
6.58

Given O=C(c1ccccc1-c1ncccn1)N1C[C@H]2C[C@@H](Nc3cnc(Cl)cn3)[C@@H]1C2 [Example 215] , respond with its pKi.
7.92

Give a short answer stating reported pKi for O=C(c1ccccc1-c1ncccn1)N1C[C@H]2C[C@@H](Oc3ccc(C(F)(F)F)cn3)[C@@H]1C2 [Example 297] .
8.00

# return recorded pKi for input Cc1cccc(C(=O)N2C[C@H]3C[C@@H](Nc4cnc(C(F)(F)F)cn4)[C@@H]2C3)c1-n1nccn1 [Example 196]
8.22
